- targetOrSystem: GlcNAc(b1-2)Man(a1-3)[GlcNAc(b1-4)][GlcNAc(b1-2)Man(a1-6)]Man(b1-4)GlcNAc(b1-4)[Fuc(a1-6)]GlcNAc
- experimentDescription: glycan array binding signal (z-score within array); higher = stronger binding
- measurementContext: glycan notation: IUPAC condensed, linker removed
Shown is part of a subset that was picked to be rich in the strongest signals.
observationType: glycan array binding signal (z-score)

• SUN4 (Saccharomyces cerevisiae), P53616 (protein) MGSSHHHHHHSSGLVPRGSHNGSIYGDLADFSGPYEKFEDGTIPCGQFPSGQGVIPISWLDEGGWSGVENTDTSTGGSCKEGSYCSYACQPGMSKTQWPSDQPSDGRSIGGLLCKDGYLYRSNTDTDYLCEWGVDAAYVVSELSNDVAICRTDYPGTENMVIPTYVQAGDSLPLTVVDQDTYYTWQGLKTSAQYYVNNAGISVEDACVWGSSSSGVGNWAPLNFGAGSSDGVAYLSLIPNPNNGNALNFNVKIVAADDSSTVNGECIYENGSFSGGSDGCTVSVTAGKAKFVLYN = -0.555
